- System name: A1 adenosine receptor (Homo sapiens)
- Construct: expressed in transfected cells; host or cells: HEK-293 or CHO cells, membranes
- Sequence (P30542 whole entry): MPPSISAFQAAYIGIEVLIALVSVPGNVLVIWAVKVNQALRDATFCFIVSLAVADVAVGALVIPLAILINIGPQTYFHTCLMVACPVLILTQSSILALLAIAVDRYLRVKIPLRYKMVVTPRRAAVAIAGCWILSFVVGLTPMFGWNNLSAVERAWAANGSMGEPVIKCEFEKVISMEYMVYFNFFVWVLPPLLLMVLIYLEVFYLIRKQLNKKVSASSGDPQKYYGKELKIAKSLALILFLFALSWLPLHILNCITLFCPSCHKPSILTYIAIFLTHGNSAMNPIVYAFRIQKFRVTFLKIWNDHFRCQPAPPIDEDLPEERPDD
- Method summary: Radioligand binding competition, A1 AdoR (3H-CPX or 3H-CCPA), membranes of transfected cells
- Details: Table 2
Reported metric: Ki

> print(dat)
                                  structure  measured
1  CCn1c(-n2cc(C)cn2)nc2c(N)nc(NCc3ccccc3)nc21    225 nM

----------
- System name: A3 adenosine receptor (Homo sapiens, UniProt P0DMS8)
- Construct: expressed in transfected cells; host or cells: HEK-293 or CHO cells (HEK-A3 or CHO-A3), membranes
- Sequence (P0DMS8 whole entry): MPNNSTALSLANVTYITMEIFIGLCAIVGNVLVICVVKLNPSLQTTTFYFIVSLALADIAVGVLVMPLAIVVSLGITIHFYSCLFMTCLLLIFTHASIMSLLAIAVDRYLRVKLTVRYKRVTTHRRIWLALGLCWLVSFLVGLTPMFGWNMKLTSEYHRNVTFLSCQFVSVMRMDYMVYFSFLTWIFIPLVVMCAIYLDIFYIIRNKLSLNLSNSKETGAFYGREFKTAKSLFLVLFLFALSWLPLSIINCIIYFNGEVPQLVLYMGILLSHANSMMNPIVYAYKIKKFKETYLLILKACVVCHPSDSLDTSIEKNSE
- Method summary: Radioligand binding competition, A3 AdoR (125I-AB-MECA), membranes of HEK-A3 or CHO-A3 cells
- Details: Table 1; 0.2 nM 125I-AB-MECA, HEK-A3 or CHO-A3 membranes
compounds and their reported Ki
Reported metric: Ki (nM)

> print(dat)
                                  structure  reported.metric  measured
1  CCn1c(-n2cc(-c3cccc(C(F)(F)F)c3)cn2)nc2c(N)nc(NCc3ccccc3)nc21               Ki      1480
2  CCn1c(-n2cc(C)cn2)nc2c(N)nc(NCc3ccccc3)nc21               Ki         2
3  CCn1c(-n2cccn2)nc2c(N)nc(NCc3ccccc3)nc21               Ki         7
4  CCn1c(-n2cc(C)cn2)nc2c(NC(=O)C(C)(C)C)nc(NCc3ccccc3)nc21               Ki      18.6

Cited source: patent US20090099212A1
